- systemUnderTest: human TAS2R1 (Homo sapiens, UniProt Q9NYW7)
- Construct: expressed in transfected cells; host or cells: HEK293T-Gα16gust44
- Sequence (Q9NYW7 1-299): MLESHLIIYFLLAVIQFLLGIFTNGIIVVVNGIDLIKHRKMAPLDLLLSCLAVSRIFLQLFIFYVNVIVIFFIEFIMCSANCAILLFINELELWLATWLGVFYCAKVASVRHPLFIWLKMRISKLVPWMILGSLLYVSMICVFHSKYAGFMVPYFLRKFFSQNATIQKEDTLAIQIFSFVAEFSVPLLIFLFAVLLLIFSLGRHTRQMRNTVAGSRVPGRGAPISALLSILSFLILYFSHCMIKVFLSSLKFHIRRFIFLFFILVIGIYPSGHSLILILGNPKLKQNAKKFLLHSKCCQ
- assayRemarks: Calcium imaging assay (FLIPR), HEK293T-Gα16gust44 cells transfected with human TAS2R1
- Type: cell-based
- conditionContext: Time 106.781 s
resultType: RLU (RLU)
Answer format: numeric, RLU implied, no suffix.

C[C@H](CCC(=O)NCCS(=O)(=O)O)[C@H]1CC[C@H]2[C@@H]3[C@H](O)C[C@@H]4C[C@H](O)CC[C@]4(C)[C@H]3C[C@H](O)[C@]12C = 334.229
C[C@H](CCC(=O)NCCS(=O)(=O)O)[C@H]1CC[C@H]2[C@@H]3CC[C@@H]4C[C@H](O)CC[C@]4(C)[C@H]3CC[C@]12C = 616.277
C[C@H](CCC(=O)O)[C@H]1CC[C@H]2[C@@H]3CC[C@@H]4C[C@H](O)CC[C@]4(C)[C@H]3C[C@H](O)[C@]12C = 394.532

Here's the next entry for you.
Item under review: C[C@H](CCC(=O)NCC(=O)O)[C@H]1CC[C@H]2[C@@H]3[C@H](O)C[C@@H]4C[C@H](O)CC[C@]4(C)[C@H]3C[C@H](O)[C@]12C . Reported RLU?
534.917

src = paper PMC10247784
